Assay: qHTS for inhibitors of binding or entry into cells for Marburg Virus
Conditions: Marburg virus pseudotyped entry inhibition, cell reporter; series mostly up to 37.8 µM
The campaign covered roughly 300,000 compounds. About 5,400 (1.8%) were called active. Inconclusive results (about 28%) are left out. Calls follow the shape of the full dose curve; tested in HEK293 cells. What follows is part of a selection rich in actives, with near analogues and random picks from the rest.
Write down the outcome that applies. Available outcomes: T = active, F = inactive

Q: # lookup: test call for `NC(=O)c1cc2ccccc2o/c1=N/NC(=O)c1cccc(F)c1`
Ans: F

Q: Please state the recorded outcome for this molecule: `COc1cc2c(cc1OC)/C(=C/C(=O)c1ccc(NC(C)=O)cc1)NCC2`
Ans: F

Q: Hi, do you know how Cc1cccc(C(=O)OC(C)C(=O)NC2CCCc3ccccc32)c1O (stereo not given) came out in this test?
Ans: F

Q: Status in this test for COC1=CC(=O)OC(C)(c2ccccc2)C1 (stereo not given) ?
Ans: F

Q: // param item: O=C(NCc1ccc2c(c1)OCO2)c1ccc2c(c1)C(=O)N(CC1CCCO1)C2=O (stereo not given) ; yields the recorded call
Ans: F

Q: For `Cc1ccc(NC(=O)CCN2CCc3ccccc3C2)cc1` , what call appears in the results of this test?
Ans: F

Q: GET /call?item= `COc1cccc(CNCCc2c[nH]c3ccccc23)c1OCc1ccccc1F` returns the recorded outcome of this test.
Ans: T

Q: Record lookup: outcome of this test for COCc1ccc(C(=O)NC2CC(C)(C)Cc3c2cnn3-c2ccc(C)cc2)o1 (stereo not given) ?
Ans: F

Q: How did this test come out for Cc1ccc(S(=O)(=O)N(C)C)cc1NC(=O)C1Cc2ccccc2CN1C(=O)c1ccco1 (stereo not given) ?
Ans: F

Q: For this molecule, state the assay outcome: O=C1c2cccc3c([N+](=O)[O-])ccc(c23)C(=O)N1CC1CCCO1 (stereo not given)
Ans: T

Q: // return assay outcome for `CCOc1cc(N2CCOCC2)c(OCC)cc1NC(=O)COC(=O)[C@H](Cc1c[nH]c2ccccc12)NC(C)=O`
Ans: F

Q: Could you please tell me the result logged for `CC(C)c1nc(NC[C@H]2CCCO2)c(C#N)c2c1COC(C)(C)C2` in this assay?
Ans: F

Q: Assay outcome for `COc1ccc2[nH]c3nc(SCC(=O)NC4CC4)nnc3c2c1` : what was it?
Ans: F

Q: For this molecule, state the assay outcome: `CCOc1ccc(C(=O)Nc2c3c(nn2-c2ccccc2)CS(=O)(=O)C3)cc1`
Ans: F

Q: What call does the record list for `COc1cccc(NC(=O)C[C@H]2SC(=Nc3ccccc3)NC2=O)c1` ?
Ans: F

Q: Hi, sorry to bother you, what did the test record for O=C(NC1(C(F)(F)F)N=C(c2ccccc2)N(C2CCCCC2)C1=O)c1ccccc1F (stereo not given) ?
Ans: F

Q: Which result was noted for this molecule in the test: Cc1ccc(C(c2nnnn2C(C)(C)C)N2CCc3ccccc3C2)cc1 (stereo not given)
Ans: F

Q: Hey, what did the test say about COCCn1nnnc1C(c1cc2ccc(OC)cc2[nH]c1=O)N1CCc2ccccc2C1 (stereo not given) ?
Ans: F

Q: Short answer needed: outcome of this test for COC1=CC(=O)OC(c2ccc(OC)cc2)C1 (stereo not given) ?
Ans: F

Q: Dear colleague, could you share the recorded outcome for Cc1ccc(C)c(NC(=O)C2CCCN2C(=O)OC(C)(C)C)c1 (stereo not given) when you have a moment?
Ans: F
